target: Sox2 DBD labelled at 37 and 120 (UniProt P48431 37-120, S37C;M120C); experiment: smFRET titration; 200 mM salt; labelled protein; smFRET: 165 mM KCl or 200 mM salt (Supplementary Table 4), buffer details not in material; NMR: 20 mM NaH2PO4, 50 mM NaCl, 5 mM DTT, pH 5.5, 15 C; details: protein: recombinant; tags: His6-SUMO removed by ULP1; blunt
Sequence (P48431 37-120 S37C/M120C): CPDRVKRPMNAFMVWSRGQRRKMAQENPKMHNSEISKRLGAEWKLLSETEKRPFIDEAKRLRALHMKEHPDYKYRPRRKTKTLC
MEASURE: Kd

- BINDER: "30 bp specific DNA (dsDNA) DNA 1: ATCCCATTAGCATCCAAACAAAGAGTTTTC DNA 2: GAAAACTCTTTGTTTGGATGCTAATGGGAT"
  MEASURE: "Kd"
  RESULT: "0.3 nM"

Recorded values, source paper PMC10873366.
